target: Kv1.3 (Homo sapiens, UniProt P22001); experiment: Electrophysiology: planar patch-clamp of Kv1.3 currents, IC50 from steady state current amplitude; conditions: Kv1.3 electrophysiology, results according to Method D1, read-out: IC50 (Kv1.3 ephys steady state)
Sequence (P22001 whole entry): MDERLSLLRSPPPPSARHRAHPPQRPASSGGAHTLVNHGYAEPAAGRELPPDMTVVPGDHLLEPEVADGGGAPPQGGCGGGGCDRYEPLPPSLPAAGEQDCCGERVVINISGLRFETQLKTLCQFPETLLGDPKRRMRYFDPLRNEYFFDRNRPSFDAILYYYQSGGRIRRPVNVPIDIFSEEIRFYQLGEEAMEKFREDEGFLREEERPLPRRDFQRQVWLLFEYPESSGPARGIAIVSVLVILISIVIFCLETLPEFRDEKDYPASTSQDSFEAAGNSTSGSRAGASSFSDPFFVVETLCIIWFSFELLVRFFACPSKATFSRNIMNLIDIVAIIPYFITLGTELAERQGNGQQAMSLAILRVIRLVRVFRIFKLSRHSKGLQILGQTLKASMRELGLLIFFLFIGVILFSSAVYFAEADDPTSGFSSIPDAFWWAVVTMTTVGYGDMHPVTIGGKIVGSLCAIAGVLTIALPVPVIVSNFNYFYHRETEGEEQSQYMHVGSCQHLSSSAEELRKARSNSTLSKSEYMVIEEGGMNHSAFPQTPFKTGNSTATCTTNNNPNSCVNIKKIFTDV
pIC50: −log10 of the molar value.
// pIC50 lookup, one value per entry

// assay Kv1.3 (Homo sapiens, UniProt P22001), entry O=C(C1CC1c1ccc(F)cc1)N(Cc1ccc(F)cn1)C(c1ccc(F)cc1)C1CCOC1 (stereo not shown) [Example 176] , pIC50 value = 6.70 to 7.30

###

molecular target: Kv1.3 (Homo sapiens, UniProt P22001); test: Electrophysiology: planar patch-clamp of Kv1.3 currents, IC50 from steady state current amplitude; settings: Kv1.3 electrophysiology, results according to Method D1, read-out: IC50 (Kv1.3 ephys steady state)
measurement-type: IC50

Record summary for O=C(CS(=O)(=O)c1cccc(C(F)(F)F)c1)N(Cc1cccnn1)C(c1ccc(OC(F)F)cc1)C1CC1 (stereo not shown) [Example 310] : reported IC50 = 200 to 1000 nM

Record summary for O=C(CS(=O)(=O)c1ccccc1)N(Cc1ccc(C(F)(F)F)nc1)C(c1ccc(F)cc1)C1CCCO1 (stereo not shown) : reported IC50 = 50 to 200 nM

Record summary for CC(CC(=O)N(Cc1ccc(F)cn1)C(c1ccc(S(=O)(=O)C(C)C)cc1)C1CC1)c1ccc(F)cc1 (stereo not shown) : reported IC50 = < 50 nM

Record summary for CN1CCC(C(c2cccc(C(F)(F)F)c2)N(Cc2ccc(F)cn2)C(=O)C2CC2c2ccc(F)cc2)CC1 (stereo not shown) [Example 147] : reported IC50 = 200 to 1000 nM

Record summary for O=C([C@H]1C[C@@H]1c1ccc(F)cc1)N(Cc1ccccn1)[C@@H](c1ccc(Cl)cc1)C1CC1 (stereo in doubt) : reported IC50 = < 50 nM

Record summary for CC(C)S(=O)(=O)c1ccc(C(C2CC2)N(Cc2ncccc2F)C(=O)C2CC2c2ccc(F)cc2)cc1 (stereo not shown) [Example 235] : reported IC50 = 200 to 1000 nM

Record summary for CCS(=O)(=O)c1ccc(C(C2CC2)N(Cc2ccc(F)cn2)C(=O)C2CC2c2ccc(F)cc2)cc1 (stereo not shown) [Example 232] : reported IC50 = 50 to 200 nM

###

// pIC50 lookup, one value per entry
molecular target: Kv1.3 (Homo sapiens); experiment: Electrophysiology: planar patch-clamp of Kv1.3 currents, IC50 from steady state current amplitude; details: Kv1.3 electrophysiology, results according to Method D1, read-out: IC50 (Kv1.3 ephys steady state)
pIC50: −log10 of the molar value.

Some compounds with recorded pIC50:
// assay Kv1.3 (Homo sapiens), entry Cc1cccc(CN(C(=O)CS(=O)(=O)c2ccc(F)cc2)C(c2ccccc2OC(F)(F)F)C2CC2)n1 (stereo not drawn) [Example 331] , pIC50 value = 6.70 to 7.30

// assay Kv1.3 (Homo sapiens), entry CC(c1ccc2c(c1)[S+]([O-])C(C)(C)O2)N(Cc1ccccn1)C(=O)CCc1cccc(C(F)(F)F)c1 (stereo not drawn) [Example 63] , pIC50 value = 5.70 to 6.00

// assay Kv1.3 (Homo sapiens), entry CC(C)S(=O)(=O)c1cccc(C(C2CC2)N(Cc2ccncn2)C(=O)C2CC2c2ccc(F)cc2)c1 (stereo not drawn) [Example 247] , pIC50 value = 6.70 to 7.30

// assay Kv1.3 (Homo sapiens), entry CCS(=O)(=O)c1cccc(C(C2CC2)N(Cc2ccccn2)C(=O)C2CC2c2cccc(C(F)(F)F)c2)c1 (stereo not drawn) [Example 217] , pIC50 value = 6.70 to 7.30

// assay Kv1.3 (Homo sapiens), entry CC(C)S(=O)(=O)c1cccc(C(C2CC2)N(Cc2cccnn2)C(=O)C2CC2c2ccc(F)cc2)c1 (stereo not drawn) [Example 241] , pIC50 value = 6.00 to 6.70

Further cases:
// assay Kv1.3 (Homo sapiens), entry N#Cc1cccc(C(C2CC2)N(Cc2ccc(C(F)(F)F)nc2)C(=O)CS(=O)(=O)c2ccc(F)cc2)c1 (stereo not drawn) [Example 333] , pIC50 value = 6.00 to 6.70

// assay Kv1.3 (Homo sapiens), entry CCS(=O)(=O)c1cccc(C(C2CC2)N(Cc2ccc(F)cn2)C(=O)CC(C)c2ccccc2C(F)(F)F)c1 (stereo not drawn) [Example 265] , pIC50 value = 6.70 to 7.30

// assay Kv1.3 (Homo sapiens), entry CCS(=O)(=O)c1cccc(C(C2CC2)N(Cc2ncccc2F)C(=O)C2CC2c2ccc(F)cc2)c1 (stereo not drawn) [Example 218] , pIC50 value = 6.70 to 7.30

// assay Kv1.3 (Homo sapiens), entry CCS(=O)(=O)c1cccc(C(C2CC2)N(Cc2ccncn2)C(=O)C2CC2c2ccc(F)cc2)c1 (stereo not drawn) [Example 192] , pIC50 value = 6.00 to 6.70

// assay Kv1.3 (Homo sapiens), entry CCC(c1ccc(S(C)(=O)=O)cc1)N(Cc1ccc(C(F)(F)F)nc1)C(=O)C1CC1c1ccc(F)cc1F (stereo not drawn) [Example 127] , pIC50 value = 6.70 to 7.30

// assay Kv1.3 (Homo sapiens), entry COc1ccccc1[C@@H](C)N(Cc1ccccn1)C(=O)CCc1cccc(C(F)(F)F)c1 [Example 61] , pIC50 value = 6.70 to 7.30

// assay Kv1.3 (Homo sapiens), entry CC(c1ccc(Cl)cc1)N(C(=O)CS(=O)(=O)c1ccc(F)cc1)C1CC2CCC(C1)N2C (stereo not drawn) [Example 280] , pIC50 value = 6.00 to 6.70

// assay Kv1.3 (Homo sapiens), entry CC(C)S(=O)(=O)c1cccc(C(C2CC2)N(Cc2cncc(F)c2)C(=O)C2CC2c2ccc(F)cc2)c1 (stereo not drawn) [Example 244] , pIC50 value = 6.00 to 6.70

// assay Kv1.3 (Homo sapiens), entry O=C(CS(=O)(=O)c1cccc(C(F)(F)F)c1)N(Cc1cccc[n+]1[O-])C(c1ccc(Cl)cc1)C1CC1 (stereo not drawn) [Example 292] , pIC50 value = 6.00 to 6.70

// assay Kv1.3 (Homo sapiens), entry O=C(CS(=O)(=O)c1ccc(F)cc1)N(Cc1ccccn1)C(c1ccc(OC(F)F)cc1)C1CC1 (stereo not drawn) [Example 314] , pIC50 value = 6.00 to 6.70

###

// IC50 lookup, one value per entry
Molecular target: Kv1.3 (Homo sapiens, UniProt P22001)
Experiment: Electrophysiology: planar patch-clamp of Kv1.3 currents, IC50 from steady state current amplitude
Conditions: Kv1.3 electrophysiology, results according to Method D1, read-out: IC50 (Kv1.3 ephys steady state)
Method: The inhibition data shown for the compounds of the list below was calculated using the steady state current amplitude at the end of the depolarising pulse in patch clamp evaluations (as described in the Biology Protocols: 1. Electrophysiology). Kv1.x currents were measured in Kv1.3/CHO or Kv1.5/CHO cells using a planar electrode version (Nanion Technologies GMBH) of the patch-clamp technique. […]

Some compounds with recorded IC50:
Record summary for CC(C)C(c1ccc(OC(F)F)cc1)N(Cc1ccc(F)cn1)C(=O)C1CC1c1ccc(F)cc1F (stereo not shown) [Example 115] : reported IC50 = 50 to 200 nM

Record summary for CN1CCC(C(c2ccc(OC(F)F)cc2)N(C(=O)C2CC2c2ccc(F)cc2)C2CCOCC2)CC1 (stereo not shown) [Example 140] : reported IC50 = 1000 to 2000 nM

Record summary for COc1ccc(CN(C(=O)CS(=O)(=O)c2ccc(F)cc2)C(c2ccc(Cl)cc2)C2CC2)cn1 (stereo not shown) [Example 295] : reported IC50 = 50 to 200 nM

Then this compound:
Record summary for CCC(c1ccc(S(=O)(=O)CC)cc1)N(Cc1ccc(C(F)(F)F)nc1)C(=O)C1CC1c1ccc(F)cc1F (stereo not shown) [Example 119] : reported IC50 = 50 to 200 nM

###

biological target: Kv1.3 (Homo sapiens); test: Electrophysiology: planar patch-clamp of Kv1.3 currents, IC50 from steady state current amplitude; conditions: Kv1.3 electrophysiology, results according to Method D1, read-out: IC50 (Kv1.3 ephys steady state)
measurement-type: IC50

Some compounds with recorded IC50:
Record summary for O=C(CS(=O)(=O)c1ccc(F)cc1)N(Cc1ccc(F)nc1)C(c1ccc(Cl)cc1)C1CC1 (stereo not shown) : reported IC50 = 50 to 200 nM

Record summary for O=C(CS(=O)(=O)c1ccc(F)cc1)N(C1CCC(F)(F)CC1)C(c1ccc(OC(F)F)cc1)C1CC1 (stereo not shown) [Example 315] : reported IC50 = 200 to 1000 nM

Record summary for CC(c1ccc(S(C)(=O)=O)cc1)N(Cc1cccnn1)C(=O)C1CC1c1ccc(F)cc1 (stereo not shown) : reported IC50 = 200 to 1000 nM

Then this compound:
Record summary for CCC(c1ccc(S(C)(=O)=O)cc1)N(Cc1ccc(C(F)(F)F)nc1)C(=O)C1CC1c1ccc(F)cc1 (stereo not shown) [Example 121] : reported IC50 = 50 to 200 nM
